Taken from PubChem BioAssay AID179.

Some molecules, each annotated with its measured pIC50.
- Test system: CEM cells HIV-1 protection, formazan growth assay
- protocol details: NCI AIDS Antiviral Assay
- experimental conditions: measured here: growth of uninfected CEM cells
In textbook form, pIC50 equals minus log to base ten of the concentration in mol/L.

Here are 10 molecules together with their reported answers.
# input Need pIC50, item Cn1c(CC(O)(C(F)(F)F)C(F)(F)F)c(C(O)(C(F)(F)F)C(F)(F)F)c2ccccc21
# output 5.47

# input Which measured pIC50 value corresponds to CC1CC(C2=CC=CCS2)=Nc2ccccc2S1 (stereo not given) ?
# output 4.27

# input Quick one: pIC50 for COc1ccc(/C=C2\CN(C)Cc3c2[nH]c(=O)c(C#N)c3-c2ccc(OC)cc2)cc1 ?
# output 4.01

# input Item under review: C[N+]1(Cc2ccc([N+](=O)[O-])cc2)CCC(CCCCCCCC2CC[N+](C)(Cc3ccc([N+](=O)[O-])cc3)CC2)CC1 (stereo not given) . Reported pIC50?
# output 4.84

# input Form field: reported pIC50 of COc1cc(C2c3cc4c(cc3C(=O)C3CCC(=O)N32)OCO4)cc(OC)c1O (stereo not given)
# output 4.56

# input Please report the recorded pIC50 for N#CC(c1cc2c(cc1Br)OCO2)N1CCOCC1 (stereo not given) .
# output 5.01

# input Item under review: CC1(C)Nc2cc3c(cc2-n2cccc21)oc1ccccc13 . Reported pIC50?
# output 5.04

# input Fill in: pIC50 of CCCCNc1cc(Nc2ccc(Br)cc2)nc(N)n1 is ___
# output 5.97

# input I am curious: what pIC50 value has been reported for Cc1nn(-c2cc(Cl)ccc2[N+](=O)[O-])c(C)c1Cl ?
# output 3.78

# input What does the data say about its pIC50? Entry: COc1c(O)c2c(=O)cc(OC)c3c4c(OC)cc(=O)c5c(O)c(OC)c6c(c(c1C(C(C)=O)C6C(C)O)c23)c54 (stereo not given)
# output 6.50

Let's switch to this molecule now.
# input Would you kindly share the measured pIC50 for CS/C=C\C(=O)O[C@H]1C[C@@H]2[C@@H](O)c3occ(C)c3C[C@]2(C)[C@@H](C)C1 ?
# output 4.52

====

- Tested on: CEM cells HIV-1 protection, formazan growth assay
- protocol details: NCI AIDS Antiviral Assay
- experimental conditions: measured here: growth of uninfected CEM cells
# if measured IC50 < 30 µM: Y  # else: N

# input Field: below-cutoff. Rule: recorded IC50 strictly less than 30 µM. Subject: N#C/C(=C\c1cccc(N)c1)c1ccccc1
# output N

# input A record lists O=P(O)(O)Cc1c(Cl)c(Cl)c(CP(=O)(O)O)c(Cl)c1Cl . Is its IC50 below 30 µM?
# output N

New cases:
# input Is 30 µM strictly greater than the molecule's reported IC50? molecule: CN(C)c1ccc(/C=C/c2sc3ccccc3[n+]2C)cc1
# output Y

# input Dear reviewer, please state whether Nc1nccc(Nc2ccc(S(N)(=O)=O)cc2)n1 has IC50 strictly beneath 30 µM.
# output N

====

- Tested on: CEM cells HIV-1 protection, formazan growth assay
- protocol details: NCI AIDS Antiviral Assay
- experimental conditions: measured here: growth of uninfected CEM cells
observation type: IC50 (µM)
Give the quantity in µM, number only.

# input Entry CCOC(=O)/C(=C/c1ccc(C)cc1)C(=O)c1ccccc1 : reported IC50 = ?
# output 15.1

# input Which IC50 is reported for this compound? Cc1ccc(C)c(NC(=O)/C(=N\N)C(c2cnc3ccc([N+](=O)[O-])cc3n2)[N+](=O)[O-])c1 (stereo not given)
# output 219

Could you now consider this next compound?
# input Which IC50 is listed for O=C1C(=Cc2cccc(Br)c2)C(=O)c2ccccc21 ?
# output 22.9
